Please provide measured GI50 for the entries that follow.
# Tested on: SK-OV-3
# protocol: NCI tumour cell line growth inhibition, 48 h
Calls of active or inactive are those of the source. Cut-off read from the data, not from the text of the source: active = GI50 up to about 1.1 µM and inactive = higher.

Ask | So what does the record say about GI50 for CCOC(=O)C(C)c1cc(C2(C)OCCO2)c(C)o1 (stereo not given) ?
Reply | > 100 µM (inactive)

Ask | Same for `Clc1ccc(-c2c(C3=NCCCN3)nnn2-c2ccccc2)cc1`
Reply | > 100 µM (inactive)

Ask | Same for `Cc1c(C)c(CC(=O)N2CC2)c(C)c(C)c1CC(=O)N1CC1`
Reply | 16.8 µM (inactive)

Ask | Same for `CN(C)C(=S)/N=c1\ss/c(=N\C(=S)N(C)C)n1-c1cccc(Cl)c1`
Reply | > 10 µM (inactive)

Ask | Same for `CC1(C)O[C@H]2[C@@H]3N=C(c4ccccc4)O[C@@H]3C=C[C@H]2O1`
Reply | > 100 µM (inactive)

###

# Tested on: SN12C
# protocol: NCI tumour cell line growth inhibition, 48 h
Structures can show the parent of a compound that is named as a salt. Active and inactive are the calls of the source. Rule as the data show it: active = GI50 up to about 1.1 µM and inactive = higher.
Please provide measured GI50 for the entries that follow.

Ask | So what does the record say about GI50 for `NC12CC3C4CC5(N)CC3C(C1)C(C5)C4C2` ?
Reply | > 100 µM (inactive)

Ask | Same for `CN1CCN(CCCNN)CC1`
Reply | > 100 µM (inactive)

Ask | Same for NC(=O)C(=Cc1ccc(C(O)P(=O)(O)O)cc1)C(N)=O (stereo not given)
Reply | > 100 µM (inactive)

Ask | Same for CC1CCC(O)(C(C)(C(=O)O)c2ccccc2)CC1 (stereo not given)
Reply | > 100 µM (inactive)

Ask | Same for `CC(C)CCC[C@@H](C)[C@H]1CC[C@H]2C3=C[C@H](OS(=O)(=O)O)[C@@]4(O)C[C@@H](O)CC[C@]4(C)[C@@]3(O)CC[C@]12C`
Reply | > 100 µM (inactive)

Ask | Same for COC(=O)c1ccccc1C1CN=NC12Cc1c(ccc3c1CCC3)C2=O (stereo not given)
Reply | 95.3 µM (inactive)

Ask | Same for COC(=O)CCC1(C)C2CCC1/C(=N/O)C2 (stereo not given)
Reply | > 100 µM (inactive)

Ask | Same for CC(=O)N1C(Nc2ccccc2)CCN1c1ccccc1 (stereo not given)
Reply | > 10 µM (inactive)

Ask | Same for CC(C)C[C@H]1C(=O)N2CCC[C@H]2[C@]2(O)O[C@](NC(=O)[C@@H]3C=C4c5cccc6[nH]c(Br)c(c56)C[C@H]4N(C)C3)(C(C)C)C(=O)N12 [BROMOCRIPTINE MESYLATE]
Reply | 56.1 µM (inactive)

Ask | Same for `c1ccc(-c2csc3ncn4cnnc4c23)cc1`
Reply | 81.7 µM (inactive)

###

# Tested on: SK-MEL-5
# protocol: NCI tumour cell line growth inhibition, 48 h
Calls of active or inactive are those of the source. Cut-off read from the data, not from the text of the source: active = GI50 up to about 1.1 µM and inactive = higher.
A correct response names exactly one class from active, inactive

Ask | For Oc1ccc2c(c1)OCC(O)(c1ccccc1O)C2 (stereo not drawn) , which call appears in the assay record?
Reply | inactive

Ask | Same for `C=C1C(=O)[C@@]23CC[C@H]4[C@@](C)(CCC[C@@]4(C)C(=O)OC)[C@@H]2CC[C@]1(O)C3`
Reply | inactive

Ask | Same for `CCOC(=O)c1ccc(N(CCOS(C)(=O)=O)CCOS(C)(=O)=O)cc1`
Reply | inactive

Ask | Same for `COc1ccc2c3c([nH]c(=O)c2c1C(=O)O)-c1ccccc1CC3`
Reply | inactive

Ask | Same for COC(=O)/C(=N\Nc1nnc(C)n1N)C(C#N)c1ccccc1 (stereo not drawn)
Reply | inactive

Ask | Same for `CCOC(=O)c1ccc(C(=O)/C(C(=O)OC(C)(C)C)=C2\CCCN2C)n1C`
Reply | inactive

Ask | Same for `CO[P@@]1(=O)O[C@@H](c2ccccc2)[C@H](O)[C@@]1(O)c1ccccc1`
Reply | inactive

Ask | Same for `CC1=C(C(=O)Nc2ccccc2)C(c2ccc(C3C(C(=O)Nc4ccccc4)=C(C)NC(C)=C3C(=O)Nc3ccccc3)cc2)C(C(=O)Nc2ccccc2)=C(C)N1`
Reply | inactive

Ask | Same for C=C1C(=O)OC2/C=C(\COC(C)=O)CCC(OC(C)=O)C3=CC(OC3=O)C12 (stereo not drawn)
Reply | inactive

Ask | Same for C[C@H]1O[C@@H](O[C@H]2[C@@H](O)C[C@H](O[C@H]3[C@@H](O)C[C@H](O[C@H]4CC[C@@]5(C)[C@H](CC[C@@H]6[C@@H]5CC[C@]5(C)[C@@H](C7=CC(=O)OC7)CC[C@]65O)C4)O[C@@H]3C)O[C@@H]2C)C[C@H](O)[C@@H]1O [DIGITOXIN]
Reply | active

Ask | Same for `O=C1c2c(Br)sc(Br)c2[C@@H](O)[C@H]1O`
Reply | inactive

Ask | Same for COC(=O)CCC1(C)C2CCC1/C(=N/O)C2 (stereo not drawn)
Reply | inactive

Ask | Same for `CCOC(=O)/C(C#N)=C(/NNc1ccccc1)c1ccncc1C(=O)O`
Reply | inactive

Ask | Same for `CC(=N/NC(=S)N1CCCCC1)/C(C)=N\NC(=S)N1CCCCC1`
Reply | inactive

Ask | Same for `Oc1c(-c2ccccc2)nc2ccccn12`
Reply | inactive

Ask | Same for CCOC(=O)C(NC(=O)CC)(Nc1ccc(S(=O)(=O)Nc2ccc(OC)nn2)cc1)C(F)(F)F (stereo not drawn)
Reply | inactive

Ask | Same for `Cn1c(=O)cc(NNc2ccc(Br)cc2)[nH]c1=O`
Reply | inactive

Ask | Same for `Cc1ccccc1C(=O)N1CCc2c([nH]c3ccccc23)C1`
Reply | inactive

Ask | Same for `Cc1ccc(-c2n[nH]c(=O)[nH]2)cc1[N+](=O)[O-]`
Reply | inactive

Ask | Same for `Clc1ccc(-c2noc(CN3CCCCC3)n2)cc1`
Reply | inactive

Ask | Same for `COc1ccc(CCCCNCc2cccc(CNCCCCc3ccc(OC)cc3)c2)cc1`
Reply | inactive

Ask | Same for `CC1(C)C/C(=N/O)c2c(nc3ccc4ccccc4c3c2-c2ccc(Cl)cc2)C1`
Reply | inactive

Ask | Same for `CC(=O)Nc1ccc(Nc2cc(=O)n(C)c(=O)[nH]2)cc1`
Reply | inactive

Ask | Same for CC1=CC2C(C=C1)S(=O)(=O)N1CC21c1ccccc1 (stereo not drawn)
Reply | inactive

Ask | Same for CN1C2CCC1CC(CC(=O)NC(c1ccc(F)cc1)c1ccc(F)cc1)C2 (stereo not drawn)
Reply | inactive

Ask | Same for `c1ccc(/N=C2\SC(=NNc3ccccc3)S\C2=N/c2ccccc2)cc1`
Reply | inactive

Ask | Same for `O=[N+]([O-])c1ccc2c(/N=N/c3ccc4ccccc4c3O)c(O)cc(S(=O)(=O)O)c2c1`
Reply | inactive

Ask | Same for Cn1c(=O)n2n(c1=O)C([S+]([O-])c1ccccc1)C2 (stereo not drawn)
Reply | inactive

Ask | Same for O=c1[nH]c(=O)n(C2CC(O)C(CO)O2)cc1C#Cc1c(F)c(F)c(F)c(F)c1F (stereo not drawn)
Reply | inactive

Ask | Same for `CC[P+]1(CC)CCCC1`
Reply | inactive

Ask | Same for O=C1NC(N2CCCC(CO)C2)=N/C1=C\c1cccs1 (stereo not drawn)
Reply | inactive

Ask | Same for `C[C@]12CCC(=O)C(O)=C1CCC2=O`
Reply | inactive

Ask | Same for `O/N=C(\CC(O)(C(F)(F)F)C(F)(F)F)c1cccs1`
Reply | inactive

Ask | Same for CC1(N2CCOCC2)CC2C(=[N+]1[O-])CCC/C2=N/O (stereo not drawn)
Reply | inactive

Ask | Same for COC1CC(O[C@H]2CC[C@@]3(C)C(=CCC4(O)C3CCC35C(=O)OC6(C)O[C@@]43CCC65)C2)OC(C)C1O (stereo partly drawn)
Reply | inactive

Ask | Same for O=C1C(c2ccccc2)=C(c2ccccc2)C(c2ccccc2)/C1=C1\C(=O)C(c2ccccc2)=C(c2ccccc2)C1c1ccccc1 (stereo not drawn)
Reply | inactive

Ask | Same for CC1OC(OC2C(OC(=O)[C@]34CCC(C)(C)C[C@H]3C3=CC[C@@H]5[C@@]6(C)CC[C@H](OC7OC(C(=O)O)C(O)C(O)C7O)C(C)(C)[C@@H]6CC[C@@]5(C)[C@]3(C)C[C@H]4O)OCC(O)C2O)C(O)C(O)C1OC1OCC(OC2OCC(O)C(O)C2O)C(O)C1O (stereo partly drawn)
Reply | inactive

Ask | Same for `CCOC(=O)C1(Br)S(=O)(=O)OCCOS1(=O)=O`
Reply | inactive
